system: Klebsiella oxytoca; test: Antimicrobial activity against Klebsiella oxytoca KO281 harboring beta-lactamase OXY-1 and CMY-2 by Etest method; assay type: functional
Reported MIC is given for each of the following compounds.
Observation type: MIC (µg/mL)

[[record]]
compound = "C[C@H]1[C@H](NC(=O)/C(=N\\OC(C)(C)C(=O)O)c2csc(N)n2)C(=O)N1S(=O)(=O)O [AZTREONAM]"
bound_operator = "≥"
result_number = 256

[[record]]
compound = "CO/N=C(\\C(=O)N[C@@H]1C(=O)N2C(C(=O)[O-])=C(C[N+]3(C)CCCC3)CS[C@H]12)c1csc(N)n1 [CEFEPIME]"
bound_operator = "="
result_number = 1.5

[[record]]
compound = "CC(C)(O/N=C(\\C(=O)N[C@@H]1C(=O)N2C(C(=O)[O-])=C(C[n+]3ccccc3)CS[C@H]12)c1csc(N)n1)C(=O)O [CEFTAZIDIME]"
bound_operator = "≥"
result_number = 256

[[record]]
compound = "C[C@@H](O)[C@H]1C(=O)N2C(C(=O)O)=C(SCCNC=N)C[C@H]12 [IMIPENEM ANHYDROUS]"
bound_operator = "="
result_number = 0.25

[[record]]
compound = "O=C(O)c1cn(C2CC2)c2cc(N3CCNCC3)c(F)cc2c1=O [CIPROFLOXACIN]"
bound_operator = "="
result_number = 0.38

[[record]]
compound = "CO/N=C(\\C(=O)N[C@@H]1C(=O)N2C(C(=O)O)=C(COC(C)=O)CS[C@H]12)c1csc(N)n1 [CEFOTAXIME]"
bound_operator = "="
result_number = 16

[[record]]
compound = "CO[C@@]1(NC(=O)Cc2cccs2)C(=O)N2C(C(=O)O)=C(COC(N)=O)CS[C@@H]21 [CEFOXITIN]"
bound_operator = "≥"
result_number = 256

[[record]]
compound = "CC1(C)S[C@@H]2[C@H](NC(=O)[C@H](N)c3ccccc3)C(=O)N2[C@H]1C(=O)O [AMPICILLIN]"
bound_operator = "≥"
result_number = 256

[[record]]
compound = "CCn1cc(C(=O)O)c(=O)c2cc(F)c(N3CCNCC3)cc21 [NORFLOXACIN]"
bound_operator = "="
result_number = 1.5

